B1: Ankyrin-1, residues 1405 to 1484; numbered along this chain, P16157 (parent)
chain: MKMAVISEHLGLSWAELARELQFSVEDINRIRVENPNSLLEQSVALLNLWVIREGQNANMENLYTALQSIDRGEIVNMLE

Variants of: B1
experimental details: abundance fitness (aPCA) (normalised: wild type 0, dead -1); higher = more abundant; growth selection in yeast, the domain comes from the species named
stated conditions: Homo sapiens
measurement kind: abundance fitness
One number for each entry.

Please review the entries below; each comes with its answer.
biopolymer sequence | measurement kind | observed measurement
MKMAVISEHLGLSWAELARELQFSVEDINRIRVENPNSLLEQSVALHNLWVIREGQNANMENLYTALQSIDRGEIVNMLE | abundance fitness | -0.503
MKMAVISEHLGLSWAELARELQFSVEDINRIRVENPNSLLEQLVALLNLWVIREGQNANMENLYTALQSIDRGEIVNMLE | abundance fitness | -0.944
MKMAVISEHLGLSWAELARELQFSVEDINRIRVENPNSLLEQRVALLNLWVIREGQNANMENLYTALQSIDRGEIVNMLE | abundance fitness | -0.89
MKMAVISEHLGLSWAELARELQFSVEDINRIRVENPNSLLEQSVALLNLWVIREGQNANMENLYTALQSINRGEIVNMLE | abundance fitness | 0.006
MKMAVISEHLGLSWAELARELQFSVEDINRIRVENPNSLLEQSVALLNLWVIREGQNANMENLYTALQSIDRVEIVNMLE | abundance fitness | -0.172
MKMAVISEHLGLSWAELARELQFSVEDINRIRVENPNSLLEQSYALLNLWVIREGQNANMENLYTALQSIDRGEIVNMLE | abundance fitness | 0.03

List abundance fitness for every entry below, keeping the order given.
1. MKMAVISEHLGLSWAELARELQFSVEAINRIRVENPNSLLEQSVALLNLWVIREGQNANMENLYTALQSIDRGEIVNMLE
2. MKMAVISEHLGLSWAELARELQFSVEDINRIRVENPNSLLEQSVRLLNLWVIREGQNANMENLYTALQSIDRGEIVNMLE
3. MKMAVISEHLGLSWAELARELQFSVEDINRIRVENPNSLLEQSVALLNLWVIREGQNANMENLYTGLQSIDRGEIVNMLE
4. MKMAVISEHLGLSWAELARELQFSVEDINRIRVENPNSLLEQSVALLNLWVIREGQNANMENLYTALQSIDRGEIVNMLV
5. MKMAVISEHLGLSWAELARELQFSVEDINRIRVENPNSLLEQSVALLNLWVIREGYNANMENLYTALQSIDRGEIVNMLE

[A]
1: -0.071; 2: -0.147; 3: -0.197; 4: -0.154; 5: -0.147
